Test system: SNB-75
Assay: NCI tumour cell line growth inhibition, 48 h
Activity calls are given as the source filed them. Rule as the data show it: active = GI50 up to about 1.1 µM and inactive = higher. Where a SMILES comes first, the peptide text is derived from it. The star is where a group is joined. Boc = CC(C)(C)OC(=O)*; OBn = c1ccc(CO*)cc1

compound	GI50
CC(NC(=O)C(Cc1ccccc1)NC(=O)C(Cc1ccccc1)NC(=O)OC(C)(C)C)C(=O)OCc1ccccc1 (stereo not drawn) (Boc-Phe-Phe-Ala-OBn; configuration not given here)	50.8 µM (inactive)
Cc1[nH]c(-c2ccccc2)c(O)c1C(=O)OC1CC(C)CCC1C(C)C (stereo not given)	17.9 µM (inactive)
CCOC(=O)CC1(c2cccc3ccccc23)OC(=O)c2ccccc21 (stereo not given)	14 µM (inactive)
O=P(O)(O)OC1O[C@H](CO)[C@H](O)[C@H](O)[C@H]1O (stereo not given in full)	> 100 µM (inactive)
COc1ccc2c3c(c(C(=O)O)oc13)C(CCC(=O)O)CC2 (stereo not given)	> 100 µM (inactive)
C[C@@H](NC(=O)[C@@H]1C[C@]1(C)COC(=O)c1cc([N+](=O)[O-])cc([N+](=O)[O-])c1)c1cccc2ccccc12	37.1 µM (inactive)
O=[N+]([O-])c1ccc(Cl)c(C2CC(c3cccc4ccccc34)=Nc3ccccc3[S+]2[O-])c1 (stereo not given)	5.86 µM (inactive)
CCOC(=O)C(=O)Nc1ccc(Cl)c(C(F)(F)F)c1	> 100 µM (inactive)
O=P(Nc1ccc(Cl)cc1)(Oc1ccccc1)N(CCCl)CCCl (stereo not given)	33.7 µM (inactive)
CS(=O)(=O)OCCCSCCSCCCOS(C)(=O)=O	> 100 µM (inactive)
O=C1C(O)=C(Cl)C(=O)c2c(O)ccc(O)c21	> 100 µM (inactive)
O=c1oc2ccccc2cc1-c1nc2ccccc2s1	6.3 µM (inactive)
COc1cc(/C=C2\CCc3cc(OC)c(OC)cc3C2=O)cc(OC)c1	21.3 µM (inactive)
CC(=O)/C=c1\[nH]/c(=C\C=C\c2ccccc2)c(=O)n1/C=C1\C(=O)Oc2ccccc2C1=O	59.4 µM (inactive)
CN(C)C1(N(C)C)Oc2c(c(=O)n(C)c(=O)n2C)C(c2ccccc2Br)C1(F)F (stereo not given)	> 100 µM (inactive)
O=S(=O)(C1=CC(S(=O)(=O)c2ccccc2)COC1)c1ccccc1 (stereo not given)	> 100 µM (inactive)
O=c1c2ccccc2sc2cccc(NCCCN3CCN(CCCNc4cccc5sc6ccccc6c(=O)c45)CC3)c12	19.5 µM (inactive)
C=CCC12CC(=O)CCC1c1ccc(OC)cc1C2=O (stereo not given)	> 100 µM (inactive)
O=C(c1ccccc1)N1C2CCC1C(C(F)(F)F)=C2C(F)(F)F	> 100 µM (inactive)
COc1ccc(Oc2cnn(C(Br)(Br)C(C)=O)c(=O)c2Br)cc1	15 µM (inactive)

----------
Tested on: NCI-H522
Assay: NCI tumour cell line growth inhibition, 48 h
Activity calls are given as the source filed them. No stated cut-off is given here; in the data, active = GI50 up to about 1.1 µM and inactive = higher.
Each entry below carries its recorded GI50.
quantity.name: GI50

compound	experimental.system	value.reported
CC(=O)O[C@H]1C(=O)[C@@]2(C)[C@H]([C@H](OC(=O)c3ccccc3)[C@]3(O)C[C@H](OC(=O)[C@H](O)[C@@H](NC(=O)c4ccccc4)c4cccc(N(C)C)c4)C(C)=C1C3(C)C)[C@]1(OC(C)=O)CO[C@@H]1C[C@@H]2O	NCI-H522	0.0533 µM (active)
Cc1cc2nc3[nH]c4c(Cl)cc(Cl)cc4c3nc2cc1C	NCI-H522	> 100 µM (inactive)
NC1CC(n2ccc(=O)[nH]c2=O)OC1C(O)CO (stereo unspecified)	NCI-H522	> 100 µM (inactive)
Cc1c(Cl)ccc2c1NC(=O)C2(O)CC(=O)c1ccc(Cl)cc1 (stereo unspecified)	NCI-H522	> 61.5 µM (inactive)
Nc1ccc(C(=O)O)cc1 [AMINOBENZOIC ACID]	NCI-H522	> 100 µM (inactive)
CCC[C@H](C)[C@H]1NC(=O)[C@@H](NC(=O)[C@@H](CC(C)C)N(C)C(=O)C2CCCN2C(=O)[C@H](C)O)[C@@H](C)OC(=O)[C@H](CC(C)C)N(C)C(=O)[C@@H]2CCCN2C(=O)[C@H](CC(C)C)NC(=O)[C@@H](C)C(=O)[C@H](C(C)C)OC(=O)C[C@@H]1O (stereo partly specified)	NCI-H522	< 0.0025 µM (active)
C/C(CC(O)(/C=N/O)c1ccccc1)=N/O (stereo unspecified)	NCI-H522	> 100 µM (inactive)
COc1cc2c(cc1OCCCC(=O)Nc1cc(C(=O)Nc3cc(C(=O)Nc4cc(C(=O)NCCCN(C)C)n(C)n4)n(C)n3)n(C)n1)N=CC1CCCN1C2=O (stereo unspecified)	NCI-H522	1.69 µM (inactive)
COc1ccc(OC)c(NC(=O)CCC/C(CC(=O)c2ccc(O)c(OC)c2)=N\Nc2nnc(C)n2N)c1	NCI-H522	> 100 µM (inactive)
Cc1cnc2c(c1)C(=O)C1=C(C2=O)C2OC(=O)CC2OC1(C)C (stereo unspecified)	NCI-H522	0.0525 µM (active)
Cn1c([C@H](C#N)c2ncccc2[N+](=O)[O-])nc2ccccc21	NCI-H522	14.4 µM (inactive)
O=C1/C(=C/c2cccc([N+](=O)[O-])c2)N=C(c2ccccc2)N1c1ccc2c(c1)Sc1cc(N3C(=O)/C(=C/c4cccc([N+](=O)[O-])c4)N=C3c3ccccc3)ccc1N2	NCI-H522	19.1 µM (inactive)
Cn1c2c(c3ccccc31)CC1c3c(c4ccccc4n3C)CC21 (stereo unspecified)	NCI-H522	> 100 µM (inactive)
CC1=NN(c2cccc(Cl)c2)C2(SCC(=O)N2c2nc3ccccc3s2)/C1=C\c1ccc(Cl)cc1 (stereo unspecified)	NCI-H522	20.3 µM (inactive)
CCCCCCCCSC(=O)NCCCC	NCI-H522	27.1 µM (inactive)
COc1c(Cl)c2c(c(OC)c1OC)-c1ccc(OC)c(=O)c(Cl)c1C(NC(C)=O)CC2 (stereo unspecified)	NCI-H522	0.148 µM (active)
O=[N+]([O-])c1cc(-[n+]2cc([O-])on2)ccc1Cl	NCI-H522	17.8 µM (inactive)
COc1ccc(/C=C(\C#N)c2nc3ccccc3c(=O)[nH]2)cc1	NCI-H522	10.6 µM (inactive)
COc1ccc(-c2cc(-c3ccc(Nc4ccnc5cc(C(F)(F)F)ccc45)cc3)[nH]c(=O)c2C#N)c2ccccc12	NCI-H522	> 100 µM (inactive)
COc1c2c(cc3nc4ccccc4nc13)CCC(C(C)(C)O)C2 (stereo unspecified)	NCI-H522	31.8 µM (inactive)
O=C1OC(c2ccccc2)=N/C1=C/C=C/c1ccco1	NCI-H522	> 100 µM (inactive)
CCNC(=O)COc1ccc(Br)cc1Br	NCI-H522	> 100 µM (inactive)
O=C(CCl)Nc1ccc(C(=O)N/N=C/c2ccc(Cl)cc2)cc1	NCI-H522	1.75 µM (inactive)
CC(C)c1ccc(/C=C2\CSCC3=C2N=C(S)NC3c2ccc(C(C)C)cc2)cc1 (stereo unspecified)	NCI-H522	53.6 µM (inactive)
O=C1C[C@H]2[C@H](c3ccc(Br)cc3)[C@H]3C(=O)c4ccccc4NC(=O)[C@@H]3[C@@]2(O)c2ccccc2N1	NCI-H522	12.1 µM (inactive)
CCC1NC(/N=N/c2ccc([N+](=O)[O-])cc2)(P(=O)(OC(C)C)OC(C)C)OC1=O (stereo unspecified)	NCI-H522	> 100 µM (inactive)

Measured values drawn from ChEMBL document CHEMBL1201862 for this set.
